Assignment: determine reported inhibition for the given compounds.
experiment: small molecules binding CAG repeat RNA – biochemical, fluorescence, confirmation (AID 652065);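 also: loss of TO-PRO-1 fluorescence as compound displaces dye from 1x1 AA loop RNA; 0% = DMSO only wells and 100% = 100 µM mitoxantrone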
run_parameters: r(CAG) RNA repeat, TO-PRO-1 dye displacement fluorescence; at 3 µM; stronger effect = higher value
Out of some 4,300 compounds screened, about 3,000 (70%) were called active. So high a share suggests a set chosen from earlier hits. Only a sample is shown.
One number for each entry, in %.

CC(=O)Nc1ccc(C(=O)Nc2nc(-c3cc(C)n(Cc4ccccc4)c3C)cs2)cc1 ... 20.6

Below are 3 compounds. Give each one its inhibition.
1. CCCOc1ccc(Cn2c(O)cc(=O)[nH]c2=O)cc1
2. O=C(O)c1ccccc1/C=N/Nc1ccc(S(=O)(=O)Nc2ccc(Cl)cc2)cc1[N+](=O)[O-]
3. COc1ccc(-c2nc3ccc(Br)cn3c2Cc2ccc(C)cc2)cc1OC

[18.4, 63.4, 9.11]

Below are 2 compounds. Give each one its inhibition.
1. CN1CCN(S(=O)(=O)c2cccc(C(=O)Nc3sccc3C#N)c2)CC1
2. Cc1ccc(Sc2cc(C(=O)c3ccccc3C(=O)O)ccc2[N+](=O)[O-])cc1

24.8
68.5
